# Measured Target: T1, 4H619-bN
# T1 chain: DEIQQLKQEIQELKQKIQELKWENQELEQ
# Test Description: two-hybrid library CCNG1;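 note: natural log of median RNA to DNA barcode read ratio; higher means stronger binding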
Values of interaction score strictly less than -0.2 map to true, and values of at least -0.2 map to false.

Some entries whose results are on file:
{"Binder": "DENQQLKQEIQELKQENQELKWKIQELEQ [4H1629-bN]", "Assigned Category": "true"}
{"Binder": "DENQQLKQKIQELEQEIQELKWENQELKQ [4H1804-bN]", "Assigned Category": "true"}
{"Binder": "DKNQQLEQEIQELEQKNQELKWEIQELEQ [4H3129-bN]", "Assigned Category": "true"}
{"Binder": "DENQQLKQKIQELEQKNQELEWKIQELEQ [4H1845-bN]", "Assigned Category": "false"}
{"Binder": "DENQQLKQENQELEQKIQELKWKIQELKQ [4H1710-bN]", "Assigned Category": "false"}

Please look at the following binder next.
Q) Problem: For the binder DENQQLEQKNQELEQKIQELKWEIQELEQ [4H1449-bN] , is interaction score under -0.2?
A) true
